target: Sushi domains (SD1/2) protein of the GABAB1a (GB1a) subunit, recombinant; experiment: FP competition
Sequence (Q9Z0U4 29-158): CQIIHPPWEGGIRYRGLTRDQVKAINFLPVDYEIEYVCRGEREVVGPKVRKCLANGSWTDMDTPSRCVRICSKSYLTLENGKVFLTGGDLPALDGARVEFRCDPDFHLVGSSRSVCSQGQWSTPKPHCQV
pKi: −log10 of the molar value. Non-standard residues stand in square brackets, D forms with d.
parameter: pKi

Here's what some known entries look like.
>  <binder>
Ac-ETEAIAWGPTGDED-NH2

>  <pKi>
6.16

$$$$
>  <binder>
Ac-DDSDVWWGGADTDYAD-NH2

>  <pKi>
6.29

$$$$
>  <binder>
Ac-TETEFIAWGPTG-NH2

>  <pKi>
6.61

$$$$
>  <binder>
Ac-EDDSDVWWG[dA]ADTD-NH2 […aADTD]

>  <pKi>
5.92

$$$$
>  <binder>
Ac-EDDSAVWWGGADTD-NH2

>  <pKi>
5.51

$$$$
>  <binder>
Ac-PWAIVWGPTVARED-NH2

>  <pKi>
6.32

$$$$
>  <binder>
Ac-ETE[dF]IAWGPTGDED-NH2 [ETEf…]

>  <pKi>
6.03

$$$$
>  <binder>
Ac-ET[dE]FIAWGPTGDED-NH2 [ETe…]

>  <pKi>
6.75

$$$$
>  <binder>
Ac-ETEFIAWGPTGDEA-NH2

>  <pKi>
7.36

$$$$
>  <binder>
Ac-ETEFIAWG[dP]TGDED-NH2 [ETEFIAWGpTGDED]

>  <pKi>
6.45

$$$$

a = Ac-TETEFIAWGPT-NH2
b = Ac-EDDSDIWWGGADTD-NH2
Lower value for measured pKi? Options: a , b Answer = label.
b
